Target: T1, Recombinant Human CD14/His Protein (B294801) (human, UniProt P08571 20-352, limits assumed)
T1 construct: Bought His-tagged recombinant human CD14; also called recombinant human CD14 antigen; CD14 antigen; not shown: histidine tag
T1 sequence (looked up): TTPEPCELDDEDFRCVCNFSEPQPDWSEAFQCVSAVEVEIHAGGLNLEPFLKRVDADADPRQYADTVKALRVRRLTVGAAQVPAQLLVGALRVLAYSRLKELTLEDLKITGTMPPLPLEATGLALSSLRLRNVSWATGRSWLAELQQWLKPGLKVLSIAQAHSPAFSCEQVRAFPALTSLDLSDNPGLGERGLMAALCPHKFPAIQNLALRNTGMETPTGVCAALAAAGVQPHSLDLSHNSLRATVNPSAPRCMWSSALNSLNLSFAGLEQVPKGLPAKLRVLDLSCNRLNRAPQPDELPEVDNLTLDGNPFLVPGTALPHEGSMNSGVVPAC
Test: SPR (Biacore 8K), antibody captured (1 ug/mL) on Protein A chip, CD14-His analyte 0.1953125-25 nM, 1:1 binding
Property: kon; scope: individual binders

| Binder | kon (M⁻¹ s⁻¹) |
| --- | --- |
| Antibody No. MPDDAD003 (HU1127-hVH3/hVL3-3) (antibody, V domains shown, D6DD3D014 with the light chain PTM site NS (VL amino acids 34, 35) changed to TS; Tested as a recombinant antibody with hFc tag, 144 kDa) VH: QLQLQESGPGLVKPSETLSLTCTVSGGSISSDSAWNWIRQPPGKGLEWIGYISYSGSTSYNPSLKSRVTISRDTSKNQFSLKLSSVTAADTAVYYCVRGLRFAYWGQGTLVTVSS VL: DIQLTQSPSSLSASVGDRVTITCRASESVDSYVTSFLHWYQQKPGKAPKLLIYRASNLQSGVPSRFSGSGSRTDFTLTISSLQPEDVATYYCQQSNEDPYTFGQGTKLEIK | 1.29e+06 |
| Antibody No. MPDDAD005 (HU1127-hVH3/hVL3-5) (antibody, V domains shown, D6DD3D014 with the light chain PTM site NS (VL amino acids 34, 35) changed to QS; Tested as a recombinant antibody with hFc tag, 144 kDa) VH: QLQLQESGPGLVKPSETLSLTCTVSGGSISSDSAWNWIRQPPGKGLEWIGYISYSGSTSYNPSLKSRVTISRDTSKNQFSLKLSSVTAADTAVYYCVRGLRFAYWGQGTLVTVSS VL: DIQLTQSPSSLSASVGDRVTITCRASESVDSYVQSFLHWYQQKPGKAPKLLIYRASNLQSGVPSRFSGSGSRTDFTLTISSLQPEDVATYYCQQSNEDPYTFGQGTKLEIK | 1.11e+06 |
| Antibody No. MPDDAD004 (HU1127-hVH3/hVL3-4) (antibody, V domains shown, D6DD3D014 with the light chain PTM site NS (VL amino acids 34, 35) changed to NA; Tested as a recombinant antibody with hFc tag, 144 kDa) VH: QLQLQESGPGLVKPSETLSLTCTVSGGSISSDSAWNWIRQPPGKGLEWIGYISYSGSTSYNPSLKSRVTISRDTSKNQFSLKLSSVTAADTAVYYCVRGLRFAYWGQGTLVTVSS VL: DIQLTQSPSSLSASVGDRVTITCRASESVDSYVNAFLHWYQQKPGKAPKLLIYRASNLQSGVPSRFSGSGSRTDFTLTISSLQPEDVATYYCQQSNEDPYTFGQGTKLEIK | 775000 |
